# credit: patent US20260242405A1

A collection of molecules and their measured inhibition at 8 µM
- SYSTEM: UniProtKB A0A1S5RAG6
- EXPERIMENTAL DETAILS: Fluorescence-based inhibition assay (substrate Neu5Acα2-3GalβMU, β-galactosidase coupled)
- Format: biochemical, influenza B virus B/Phuket/3073/2013
- MEASUREMENT PARAMETERS: read-out: percentage inhibition against NB-Phu13
MEASUREMENT KIND: inhibition at 8 µM (%)

* CC(=O)N[C@@H]1C(O)C[C@](OCC2O[C@@H](Oc3ccc([N+](=O)[O-])cc3)C(O)C(O)[C@H]2O)(C(=O)O)OC1[C@H](O)[C@H](O)CO (some centres unmarked) [Neu5Acα2-6GalβpNP, reference compound] | 0.8
* CC(=O)NC1C[C@](OCC2O[C@@H](Oc3ccc([N+](=O)[O-])cc3)C(O)C(O)[C@H]2O)(C(=O)O)OC([C@H](O)[C@H](O)CO)[C@@H]1NC(C)=O (some centres unmarked) | 1.5
* CC(=O)N[C@@H]1C(NC(=N)N)C[C@](OC2C(O)[C@H](Oc3ccc([N+](=O)[O-])cc3)OC(CO)[C@@H]2O)(C(=O)O)OC1[C@H](O)[C@H](O)CO (some centres unmarked) | 80.1
* CC(=O)N[C@H]1[C@H]([C@H](O)[C@H](O)CO)O[C@@](O[C@H]2[C@@H](O)[C@@H](CO)O[C@@H](Oc3ccc([N+](=O)[O-])cc3)[C@@H]2O)(C(=O)O)C[C@@H]1OC(C)=O [Neu4,5Ac2α2-3GalβpNP, Neu4,5Acα2-3GalβpNP, reference compound] | 1.3
* CC(=O)N[C@@H]1C(O)C[C@](OC2C(O)[C@H](Oc3ccc([N+](=O)[O-])cc3)OC(CO)[C@@H]2O)(C(=O)O)OC1[C@H](O)[C@H](O)CO (some centres unmarked) [Neu5Acα2-3GalβpNP, reference compound] | 0.7

----------
- SYSTEM: NB-Aus21 (IBV neuraminidase) (Influenza B virus, UniProt A0A1X9RX69)
- EXPERIMENTAL DETAILS: biochemical
- Design: species or system influenza B virus B/Austria/1359417/2021
- MEASUREMENT PARAMETERS: inhibitor 8.0 μM, substrate Neu5Acα2-3GalβMU 8.0 μM; Example 2, Table 2; read-out: Percentage inhibition against NB-Aus21 (IBV)
MEASUREMENT KIND: inhibition at 8 µM (%)

- CC(=O)N[C@@H]1C(O)C[C@](OC2C(O)[C@H](Oc3ccc([N+](=O)[O-])cc3)OC(CO)[C@@H]2O)(C(=O)O)OC1[C@H](O)[C@H](O)CO (stereo partly shown) [Neu5Acα2-3GalβpNP, reference compound]: 25.6
- CC(=O)NC1C[C@](OCC2O[C@@H](Oc3ccc([N+](=O)[O-])cc3)C(O)C(O)[C@H]2O)(C(=O)O)OC([C@H](O)[C@H](O)CO)[C@@H]1NC(C)=O (stereo partly shown): 21.5
- CC(=O)N[C@@H]1C(N=[N+]=[N-])C[C@](OC2C(O)[C@H](Oc3ccc([N+](=O)[O-])cc3)OC(CO)[C@@H]2O)(C(=O)O)OC1[C@H](O)[C@H](O)CO (stereo partly shown): 22
- CC(=O)N[C@H]1[C@H]([C@H](O)[C@H](O)CO)O[C@@](OC[C@H]2O[C@@H](Oc3ccc([N+](=O)[O-])cc3)[C@H](O)[C@@H](O)[C@H]2O)(C(=O)O)C[C@@H]1NC(=N)N: 69
- CC(=O)N[C@H]1[C@H]([C@H](O)[C@H](O)CO)OC(O)(C(=O)O)C[C@@H]1N (stereo partly shown): 41.8
- CC(=O)N[C@@H]1C(NC(=N)N)C[C@](OC2C(O)[C@H](Oc3ccc([N+](=O)[O-])cc3)OC(CO)[C@@H]2O)(C(=O)O)OC1[C@H](O)[C@H](O)CO (stereo partly shown): 86
- CC(=O)N[C@H]1[C@H]([C@H](O)[C@H](O)CO)OC(O)(C(=O)O)C[C@@H]1O (stereo partly shown) [Neu5Ac (1), N-Acetylneuraminic acid, reference compound]: 20.2
- CC(=O)NC1C[C@](OC2C(O)[C@H](Oc3ccc([N+](=O)[O-])cc3)OC(CO)[C@@H]2O)(C(=O)O)OC([C@H](O)[C@H](O)CO)[C@@H]1NC(C)=O (stereo partly shown): 17.3
- CC(=O)N[C@@H]1C(N)C[C@](OC2C(O)[C@H](Oc3ccc([N+](=O)[O-])cc3)OC(CO)[C@@H]2O)(C(=O)O)OC1[C@H](O)[C@H](O)CO (stereo partly shown): 45
- CC(=O)N[C@@H]1C(N=[N+]=[N-])C[C@](OCC2O[C@@H](Oc3ccc([N+](=O)[O-])cc3)C(O)C(O)[C@H]2O)(C(=O)O)OC1[C@H](O)[C@H](O)CO (stereo partly shown): 23
